experiment: In vitro microsomal stability, rat; type: in vitro ADME; details: 60 min
assay.readout: % of compound remaining when incubated in rat liver microsomes with NADPH
Write down the value, and be sure its unit follows.

Examples with answers:
[
  {
    "compound": "CC(O)C(O)CCNC(=O)[C@@H]1N[C@H](CC(C)(C)C)[C@]2(C(=O)Nc3cc(Cl)c(F)cc32)[C@H]1c1cccc(Cl)c1 (stereo partly shown)",
    "reading": "32.81%"
  },
  {
    "compound": "CC(C)(C)C[C@H]1N[C@@H](C(=O)N[C@H]2C[C@@H](O)C2)[C@H](c2cccc(Cl)c2F)[C@@]12C(=O)Nc1cc(Cl)ccc12 (stereo in doubt)",
    "reading": "23.28%"
  },
  {
    "compound": "CC(C)(C)C[C@H]1N[C@@H](C(=O)NC2CC(O)C2)[C@H](c2cccc(Cl)c2F)[C@@]12C(=O)Nc1cc(Cl)ccc12 (stereo partly shown)",
    "reading": "29.15%"
  }
]

Turning to the following compound.
[in] What measured % of compound remaining when incubated in rat liver microsomes with NADPH goes with "CC(C)(C)C[C@H]1N[C@@H](C(=O)N[C@H]2C[C@@](C)(O)C2)[C@H](c2cccc(Cl)c2F)[C@@]12C(=O)Nc1cc(Cl)ccc12" ?
[out] 43.03%

---

test system: cancer cell lines with wild-type p53 / mutated or deleted p53 (ATCC); assay: Cell growth assay (WST-8), other cancer cell lines; assay type: cell-based; settings: Homo sapiens, PC-3, Table 19B; PC3 cells; read-out: Inhibition of cell growth IC50, PC3
assay.readout: log10(IC50) (log10 of the value in µM)
Scale type: logarithmic (base 10). Underlying IC50 unit: µM.

[
  {
    "molecule": "CN1[C@@H](C(=O)NCC[C@H](O)CO)[C@H](c2cccc(Cl)c2)[C@@]2(C(=O)Nc3cc(Cl)c(F)cc32)[C@H]1CCCc1cccs1 [MI-711]",
    "assay.readout": "log10(IC50)",
    "reading": 0.97
  },
  {
    "molecule": "O=C(NCC[C@H](O)CO)[C@@H]1N[C@H](CCCc2ccccc2)[C@]2(C(=O)Nc3cc(Cl)c(F)cc32)[C@H]1c1cccc(Cl)c1 [MI-704]",
    "assay.readout": "log10(IC50)",
    "reading": 1.26
  },
  {
    "molecule": "CN1[C@@H](C(=O)NCC[C@H](O)CO)[C@H](c2cccc(Cl)c2)[C@@]2(C(=O)Nc3cc(Cl)c(F)cc32)[C@H]1CCC1CCCC1 [MI-713]",
    "assay.readout": "log10(IC50)",
    "reading": 0.79
  },
  {
    "molecule": "CC(C)CC(C)(C)C[C@H]1N[C@@H](C(=O)NCCN2CCOCC2)[C@H](c2cccc(Cl)c2F)[C@@]12C(=O)Nc1cc(F)c(F)cc12 [MI-730]",
    "assay.readout": "log10(IC50)",
    "reading": 0.80
  },
  {
    "molecule": "CC(C)CC(C)(C)C[C@H]1N(C)[C@@H](C(=O)NCC[C@H](O)CO)[C@H](c2cccc(Cl)c2)[C@@]12C(=O)Nc1cc(F)c(F)cc12 [MI-737]",
    "assay.readout": "log10(IC50)",
    "reading": 1.05
  }
]

[in] What measured log10(IC50) goes with CC(C)CC(C)(C)C[C@H]1N[C@@H](C(=O)NCC[C@H](O)CO)[C@H](c2cccc(Cl)c2)[C@@]12C(=O)Nc1cc(F)c(F)cc12 [MI-735] ?
[out] 0.93

---

assay: In vitro microsomal stability, rat; format: in vitro ADME; conditions: rat liver microsomes, NADPH, 15 min
The compounds listed here are annotated with their % of compound remaining when incubated in rat liver microsomes with NADPH.
Kindly provide the numeric value in % only, without the unit symbol.

[
  {
    "compound": "CC(C)(C)C[C@H]1N[C@@H](C(=O)NCC[C@H](O)CN2CC[C@@H](O)C2)[C@H](c2cccc(Cl)c2)[C@@]12C(=O)Nc1cc(Cl)c(F)cc12",
    "reading": 82.81
  },
  {
    "compound": "CC(C)(C)C[C@H]1N[C@@H](C(=O)N[C@H]2CC[C@@H](O)C2)[C@H](c2cccc(Cl)c2F)[C@@]12C(=O)Nc1cc(Cl)ccc12",
    "reading": 0.83
  },
  {
    "compound": "CC(C)(C)C[C@H]1N[C@@H](C(=O)NCCC(C)(O)CO)[C@H](c2cccc(Cl)c2)[C@@]12C(=O)Nc1cc(Cl)c(F)cc12 (stereo partly shown)",
    "reading": 82.50
  }
]

[in] What measured % of compound remaining when incubated in rat liver microsomes with NADPH goes with "CC(C)(C)C[C@H]1N[C@@H](C(=O)NCC[C@H](O)CNC(C)(C)C)[C@H](c2cccc(Cl)c2)[C@@]12C(=O)Nc1cc(Cl)c(F)cc12" ?
[out] 75.72

---

test system: Isogenic HCT-116 colon cancer cell lines; test: cells; type: cell-based; settings: Homo sapiens, HCT-116, read-out: Inhibition of cell growth IC50, HCT116 p53 KO, Table 19B; HCT116 p53 KO;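 further: cells grown in 96-well plates in McCoy's 5A medium with 10% FBS, exposed to compound for 4 days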
assay.readout: IC50

[
  {
    "smiles.code": "CN1[C@@H](C(=O)NCC[C@H](O)CO)[C@H](c2cccc(Cl)c2)[C@@]2(C(=O)Nc3cc(Cl)c(F)cc32)[C@H]1CCC1CCCC1",
    "IC50": "4.3 µM"
  },
  {
    "smiles.code": "CN1[C@@H](C(=O)NCC[C@H](O)CO)[C@H](c2cccc(Cl)c2)[C@@]2(C(=O)Nc3cc(Cl)c(F)cc32)[C@H]1CCCc1cccs1",
    "IC50": "6.3 µM"
  },
  {
    "smiles.code": "CC(C)(C)C[C@H]1N[C@@H](C(=O)NCC[C@H](O)CO)[C@H](c2cccc(Cl)c2)[C@@]12C(=O)Nc1c(Cl)cccc12",
    "IC50": "20.9 µM"
  }
]

[in] What measured IC50 goes with "CC(C)CC(C)(C)C[C@H]1N[C@@H](C(=O)NCC[C@H](O)CO)[C@H](c2cccc(Cl)c2F)[C@@]12C(=O)Nc1cc(Cl)c(F)cc12" ?
[out] 6.4 µM

[in] What measured IC50 goes with "CC(C)CC(C)(C)C[C@H]1N[C@@H](C(=O)NCC[C@H](O)CO)[C@H](c2cccc(Cl)c2)[C@@]12C(=O)Nc1cc(Cl)c(F)cc12" ?
[out] 5.8 µM

[in] What measured IC50 goes with "CN1[C@@H](C(=O)NCCN2CCOCC2)[C@H](c2cccc(Cl)c2F)[C@@]2(C(=O)Nc3cc(F)c(F)cc32)[C@H]1CC(C)(C)C" ?
[out] > 100 µM

---

assay: In vitro microsomal stability, rat; format: in vitro ADME; settings: Table 17, 0 min
assay.readout: % of compound remaining when incubated in rat liver microsomes (%)
Kindly provide the numeric value in % only, without the unit symbol.

Examples with answers:
[
  {
    "smiles.code": "CC(C)(C)C[C@H]1N[C@@H](C(=O)NCCCN2CCCC2)[C@H](c2cccc(Cl)c2F)[C@@]12C(=O)Nc1cc(Cl)ccc12",
    "units.symbol": "%",
    "reading": 100
  },
  {
    "smiles.code": "CC(C)N1CCN(CCCNC(=O)[C@@H]2N[C@H](CC(C)(C)C)[C@]3(C(=O)Nc4cc(Cl)ccc43)[C@H]2c2cccc(Cl)c2F)CC1",
    "units.symbol": "%",
    "reading": 100
  }
]

[in] What measured % of compound remaining when incubated in rat liver microsomes goes with "CN1CCN(CCCNC(=O)[C@@H]2N[C@H](CC(C)(C)C)[C@]3(C(=O)Nc4cc(Cl)c(F)cc43)[C@H]2c2cccc(Cl)c2)CC1" ?
[out] 100

---

experiment: In vitro microsomal stability, human; format: in vitro ADME; conditions: Human Microsome, same batch, 30 min
assay.readout: Microsomal stability, % remaining (%)
Kindly provide the numeric value in % only, without the unit symbol.

Examples with answers:
[
  {
    "compound": "CC(C)(C)C[C@H]1N[C@@H](C(=O)NCC[C@H](O)CN2CCCC2)[C@H](c2cccc(Cl)c2)[C@@]12C(=O)Nc1cc(Cl)c(F)cc12",
    "Microsomal stability, % remaining, %": 66.83
  },
  {
    "compound": "CC(C)(C)C[C@H]1N[C@@H](C(=O)NCC[C@H](O)CNC(C)(C)C)[C@H](c2cccc(Cl)c2)[C@@]12C(=O)Nc1cc(Cl)c(F)cc12",
    "Microsomal stability, % remaining, %": 47.41
  },
  {
    "compound": "CC(C)(C)C[C@H]1N[C@@H](C(=O)NCC[C@H](O)CN2CC[C@@H](O)C2)[C@H](c2cccc(Cl)c2)[C@@]12C(=O)Nc1cc(Cl)c(F)cc12",
    "Microsomal stability, % remaining, %": 45.48
  },
  {
    "compound": "CC(C)(C)C[C@H]1N[C@@H](C(=O)NCCC(C)(O)CO)[C@H](c2cccc(Cl)c2)[C@@]12C(=O)Nc1cc(Cl)c(F)cc12 (some centres unmarked)",
    "Microsomal stability, % remaining, %": 65.20
  }
]

Turning to the following compound.
[in] What measured Microsomal stability, % remaining goes with CC(O)C(O)CCNC(=O)[C@@H]1N[C@H](CC(C)(C)C)[C@]2(C(=O)Nc3cc(Cl)c(F)cc32)[C@H]1c1cccc(Cl)c1 (some centres unmarked) ?
[out] 22.75

Origin of the recorded values: patent US9079913B2
